Target: proMMP9(67-444;ΔFnII) (SEQ ID NO:5) (Homo sapiens, UniProt P14780, DEL216-390)
Construct: start methionine (N)
Sequence (P14780 with tags, fused parts or gaps DEL216-390): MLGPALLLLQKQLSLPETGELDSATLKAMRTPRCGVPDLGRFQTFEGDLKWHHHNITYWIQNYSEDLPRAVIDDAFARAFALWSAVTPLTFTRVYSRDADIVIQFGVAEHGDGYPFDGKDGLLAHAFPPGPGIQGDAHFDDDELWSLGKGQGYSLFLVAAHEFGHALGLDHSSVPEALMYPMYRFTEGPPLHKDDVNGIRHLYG
Experiment: ThermoFluor binding assay with proMMP9(67-444;ΔFnII)
recorded_endpoint: pKd
Notebook: values listed as pKd are -log10 of the concentration (mol/L).

Recorded pKd, per entry:
CC(C)Oc1ccc(S(N)(=O)=O)cc1Nc1nc(-c2ccc3[nH]cnc3c2)cs1 | 5.85
CC(C)Oc1ccc(C(N)=O)cc1Nc1nc(-c2nc3ccccc3n2C)cs1 | 5.01
CC(C)Oc1ccc(S(N)(=O)=O)cc1Nc1nc(-c2ccc3c(c2)ncn3C)cs1 | 5.70

q: Consider the compound CCn1cnc2cc(-c3csc(Nc4cc(S(N)(=O)=O)ccc4OC(C)C)n3)ccc21 and give its measured pKd.
a: 5.80

The values you see were collected from patent US20120129872A1.
